- target system: muskarinen Rezeptoren
- assay remarks: Receptor binding studies (Tabelle A), radioligand displacement
- test parameters: Radioligand L(+)cis-[2-Methyl-³H]-N,N,N-trimethyl-1, 3-dioxolan-4-methanammonium-jodid; Organ: Cerebraler Cortex (Ratte)
outcome measure: Ki (µM)
Give bare numbers, in µM.

The following compounds have reported results that may help.
compound: c1ccc(OC2CN3CCC2CC3)cc1 (stereo not drawn) [Beispiel 9, 3-Phenoxy-1-azabicyclo[2.2.2]octan]
measured result: 0.089
--
compound: c1ccc(COC2CN3CCC2CC3)cc1 (racemic)
measured result: 0.229

Moving on to the next compound.
For record c1cncc(OC2CN3CCC2CC3)c1 (stereo not drawn) the listed Ki is 0.12
